Attribution: ChEMBL document CHEMBL4689842

Tested on: U2OS
Assay: Multiplex assay against U2OS
Type: toxicity, cell-based
Settings: human, 12 h, 1 µM, compound concentration 1 uM, replicate 2
Criterion: Population Pyknosed Nuclei (%) strictly under 10%. Met: Condition met. Not met: Condition not met.

Item Cl.N#Cc1ccc2[nH]cc(CCCCN3CCN(c4ccc5oc(C(N)=O)cc5c4)CC3)c2c1 [VILAZODONE HYDROCHLORIDE] : Population Pyknosed Nuclei (%) beneath 10%, strictly? Condition not met

###

System: U2OS
Assay: Multiplex assay against U2OS
Type: toxicity, cell-based
Settings: human, 12 h, 10 µM, compound concentration 10 uM, replicate 1
In this section, each of the molecules is paired with its reported Population Normal (%).
Write the answer as a number in %, unit excluded.

Cc1nc(Nc2n[nH]c3c2CN(C(=O)N[C@H](CN(C)C)c2ccccc2)C3(C)C)c2sccc2n1 ... 97
Cc1cc(C)cc(-c2cnc3cc(Cl)c(-c4cccc(O)c4)cc3c2OCCCN)c1 ... 85
Cc1nc(-c2ccc(-c3ccc(C(=O)N4CCc5cc6c(cc54)C4(CCN(C)CC4)CO6)cc3)c(C)c2)no1 ... 92

Fill in the blank: the reported Population Normal (%) of Cc1csc2c(N[C@@H](C)CN3CCN(S(=O)(=O)c4ccc(Cl)c(Cl)c4)CC3)ncnc12 is ____. 90

Name the reported Population Normal (%) value associated with the molecule CN1C(=O)c2sccc2N(C)c2nc(Nc3ccc(S(N)(=O)=O)cc3)ncc21 98
